- system: T1, Bio-P19 member A2E-21 (chain 2 carries a C-terminal BirA substrate peptide (BSP), enzymatically biotinylated; the BSP letters are not given in the patent and are left out)
- T1 construct: also called biotinylated control peptide A2E-21/HLA-A*02:01 monomer
- T1 sequence (beta, as listed by the source): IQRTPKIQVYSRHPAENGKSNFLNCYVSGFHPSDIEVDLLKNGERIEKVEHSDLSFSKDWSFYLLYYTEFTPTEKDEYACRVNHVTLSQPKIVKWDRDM
- assay_protocol: phage ELISA, streptavidin plate, anti-M13-HRP
measured_metric: binding result

PSA146/HLA-A*02:01-specific scFv phage clone #14 (scFv, V domains shown) VH: EVQLVQSGAEVKKPGASVKVSCKASGYTFTGYFMHWVRQAPGQGLEWMGGFDPEDGETIYAQKFQGRVTMTEDTSTDTAYMELSSLRSEDTAVYYCARYSYDLWGQGTLVTVSS VL: QTVVTQEPSLTVSPGGTVTLTCASSTGAVTSGYYPNWFQQKPGQAPRALIYSTSNKHSWTPARFSGSLLGGKAALTLSGVQPEDEAEYYCLLYYGGAQWVFGGGTKLTVLG: no binding
PSA146/HLA-A*02:01-specific scFv phage clone #13 (scFv, V domains shown) VH: QVQLVQSGAEVKKPGASVKVSCKASGYTFTSYYMHWVRQAPGQGLEWMGGFDPEDGETIYAQKFQGRVTMTEDTSTDTAYMGLSSLRSEDTAVYYCARYSYDYWGQGTLVTVSS VL: QAVVTQEPSLTVSPGGTVTLTCASSTGAVTSGYYPNWFQQKPGQAPRALIYSTSNKHSWTPARFSGSLLGGKAALTLSGVQPEDEAEYYCLLYYGGAYVFGTGTKVTVLG: no binding
